The origin of these recorded values is the Immune Epitope Database (IEDB).

Overview of recorded Kd for various sequences
molecular target: HLA-A*02:06; assay: IEDB peptide-MHC binding, purified MHC/competitive/radioactivity; filed as Kd, often an IC50 or EC50 that approximates it; bounds were set here for any values at or beyond the usual limits of such assays; settings: source organism: Dengue virus 4 Philippines/H241/1956
The reply should contain only the number, in µM.

Known Kd results, listed for orientation:
>>> recorded_number("GLYPLAIPV")
0.125
>>> recorded_number("NQAAVLMGL")
0.00698

Consider the additional sequence presented here.
Q. I'd like to know its Kd. The sequence in question is YTPEGIIPTL
A. 0.0213

* * *

target: HLA-A*23:01; assay: IEDB peptide-MHC binding, purified MHC/competitive/radioactivity; filed as Kd, often an IC50 or EC50 that approximates it; bounds were set here for any values at or beyond the usual limits of such assays; conditions: source organism: Dengue virus 3 Martinique/1243/1999
Readout: Kd (µM)
Numeric only. Scale: µM

Q. What measured Kd is associated with RTNAAMGAVF on HLA-A*23:01?
A. 2.05

* * *

molecular target: HLA-C*05:01; experiment: IEDB peptide-MHC binding, purified MHC/direct/fluorescence; filed as Kd, often an IC50 or EC50 that approximates it; bounds were set here for any values at or beyond the usual limits of such assays; settings: source organism: Shewanella sp. W3-18-1
pKd: −log10 of the molar value.
Readout: pKd

Q. What value of measured pKd is listed for LMMSSPPPI ?
A. ≤ 4.70

* * *

Recorded pKd, one value per entry.
target: HLA-A*30:01; experiment: IEDB peptide-MHC binding, purified MHC/competitive/radioactivity; filed as Kd, often an IC50 or EC50 that approximates it; bounds were set here for any values at or beyond the usual limits of such assays; details: source organism: Dengue virus 3 Martinique/1243/1999
Just so you know, pKd here is -log10 of the concentration in molar units; reply with that number alone.

>>> recorded_number("EEALKGLPIR")
6.22
>>> recorded_number("LAGVSLLPVC")
4.80

Next:
Q. I'm curious: which pKd was measured for TLKRRSWPLN tested on HLA-A*30:01?
A. 5.26

* * *

biological target: HLA-A*11:01; test: IEDB peptide-MHC binding, purified MHC/direct/fluorescence; filed as Kd, often an IC50 or EC50 that approximates it; bounds were set here for any values at or beyond the usual limits of such assays; details: source organism: Pseudomonas putida
pKd: −log10 of the molar value.
Readout: pKd

Q. Endpoint output: pKd of VMTEGRHAV . Value?
A. ≤ 4.70

* * *

molecular target: HLA-B*40:01; assay: IEDB peptide-MHC binding, purified MHC/direct/fluorescence; filed as Kd, often an IC50 or EC50 that approximates it; bounds were set here for any values at or beyond the usual limits of such assays; details: source organism: SARS-CoV1
Readout: Kd
Give the number first and the unit second.

Q. Item LQIPFAMQM with HLA-B*40:01 - Kd?
A. 4.04 µM

* * *

target: HLA-B*46:01; experiment: IEDB peptide-MHC binding, purified MHC/competitive/fluorescence; filed as Kd, often an IC50 or EC50 that approximates it; bounds were set here for any values at or beyond the usual limits of such assays; settings: source organism: Bacillus anthracis str. A0488
Readout: pKd
Hey, just a heads up that pKd is the negative log base 10 of the concentration in molar.

Q. Which pKd is listed for LMAFSTGPF ?
A. 5.56
